The reader will find reported Tm values listed item by item below.
Assay: melting temperature; fluorescence melt of hairpins on a sequencing array, two-state fit, raised by 9.35 °C to match UV melts
Protocol conditions: sodium 0.088 M
API: value field is a number in °C; no unit string.

Entry GTGAAGCGAAAGCTCCAC (((.(((....))).))) , Tm reported as 50

Entry GGGAACGAAAGTTCTCCC ((((((....)))..))) , Tm reported as 45

Entry GCATGGGGAAACTCGTGC (((.(.(....).).))) , Tm reported as 41

Entry GCGCTTACGAAAGTACGC (((..(((....)))))) , Tm reported as 46.2

Entry GCCACGCGAAAGCGCAGC ((..(((....)))..)) , Tm reported as 43.6

Entry GCTCGTCGAAAGACTAGC (((.(((....))).))) , Tm reported as 49

Entry CGTAAACGGAAACGTACG (((..(((....)))))) , Tm reported as 34.8

Entry CGTCGCCGGAAACGGACG (((..(((....)))))) , Tm reported as 47.1

* * *

The reader will find reported folding enthalpy values listed item by item below.
Assay: folding enthalpy; higher = less favourable; fluorescence melt of hairpins on a sequencing array, two-state fit
Protocol conditions: sodium 0.088 M
Output should be the measured figure followed by the unit it is expressed in.

Entry GTCGTATCGAAAGATGAC (((..(((....)))))) , folding enthalpy reported as -20 kcal/mol

Entry GCGTATGGACGC ((((....)))) , folding enthalpy reported as -21 kcal/mol

Entry GATCGACATATCGATC ((((((....)))))) , folding enthalpy reported as -43.4 kcal/mol

* * *

The reader will find reported Tm values listed item by item below.
Assay: melting temperature; fluorescence melt of hairpins on a sequencing array, two-state fit, raised by 9.35 °C to match UV melts
Protocol conditions: sodium 0.088 M
API: value field is a number in °C; no unit string.

Example cases with answers are listed next.
Entry GAGTAAACGAAAGTTCTC (((..(((....)))))) , Tm reported as 30.1

Entry GCGTAGCGAAAGCCTCGC (((..((....))..))) , Tm reported as 44.1

Entry GGGCGCCCGAAAGGGCCC (((..(((....)))))) , Tm reported as 59.5

Entry GAACCCGAAAGGGTATTC ((((((....)))..))) , Tm reported as 33.2

Entry GTATGGGGAAACCTGTAC (((..((....))..))) , Tm reported as 32.2

Continuing:
Entry GCTGTACGAAAGTAAGC (((.(((....)))))) , Tm reported as 49.2

Entry GTCTAAGGAAACTTGGAC (((.(((....))).))) , Tm reported as 40.2

* * *

The reader will find reported Tm values listed item by item below.
Assay: melting temperature; fluorescence melt of hairpins on a sequencing array, two-state fit, raised by 9.35 °C to match UV melts
Protocol conditions: sodium 0.088 M
API: value field is a number in °C; no unit string.

Entry GCAACGCGAAAGCGCGGC ((..(((....)))..)) , Tm reported as 48.1

Entry GATCTAGCCCTAGATC ((((((....)))))) , Tm reported as 45.6

Entry GGGTCCGAAAGGAGCCC ((((((....))).))) , Tm reported as 68.5

Entry GCATACGAAAGTAGCTGC ((((((....)))..))) , Tm reported as 48.1

Entry GGTACCGGAAACAGTACC (((((.(....).))))) , Tm reported as 39.9

With those in mind, consider the next sequence.
Entry GATCCTTATTAGGATC ((((((....)))))) , Tm reported as 51.7
